# Target entity: Adenosine receptors; A1 & A3 (Homo sapiens) (UniProt P30542+P0DMS8)
# Sequence (P0DMS8 whole entry, looked up): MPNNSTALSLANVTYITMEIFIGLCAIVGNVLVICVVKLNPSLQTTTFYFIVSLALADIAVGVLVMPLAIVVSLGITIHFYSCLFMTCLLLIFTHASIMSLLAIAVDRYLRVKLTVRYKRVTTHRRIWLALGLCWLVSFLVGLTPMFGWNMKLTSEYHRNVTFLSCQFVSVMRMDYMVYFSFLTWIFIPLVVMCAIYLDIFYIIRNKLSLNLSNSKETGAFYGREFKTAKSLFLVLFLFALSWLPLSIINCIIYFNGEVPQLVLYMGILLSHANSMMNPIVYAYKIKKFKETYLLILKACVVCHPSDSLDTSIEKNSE
# Sequence (P30542 whole entry, looked up): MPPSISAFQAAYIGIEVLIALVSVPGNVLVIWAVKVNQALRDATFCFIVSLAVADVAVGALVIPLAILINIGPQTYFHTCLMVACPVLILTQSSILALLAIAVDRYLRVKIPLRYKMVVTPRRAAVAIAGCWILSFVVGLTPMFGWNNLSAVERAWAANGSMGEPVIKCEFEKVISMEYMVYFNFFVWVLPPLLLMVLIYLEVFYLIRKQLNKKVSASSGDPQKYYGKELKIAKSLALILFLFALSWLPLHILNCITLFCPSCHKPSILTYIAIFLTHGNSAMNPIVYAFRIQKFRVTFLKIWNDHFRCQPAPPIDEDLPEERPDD
# Test protocol: Ratio of binding to adenosine A1 and adenosine A3 receptor
# Assay type: protein assay
Experimental readout: Selectivity

[I] CCCNc1nc(-n2cc(-c3ccc(OC)cc3)cn2)nc2c1ncn2C1O[C@H](CO)[C@@H](O)[C@H]1O (stereo partly specified)
[II] CNc1nc(-n2cc(-c3cccnc3)cn2)nc2c1ncn2C1O[C@H](CO)[C@@H](O)[C@H]1O (stereo partly specified)
Prompt: Pick one, I or II : lowest reported Selectivity. Please identify the chosen entry by its label.
Response: I

[A] CNc1nc(-n2cc(-c3ccncc3)cn2)nc2c1ncn2C1O[C@H](CO)[C@@H](O)[C@H]1O (stereo partly specified)
[B] COc1ccc(-c2cnn(-c3nc(NCc4cccc(I)c4)c4ncn(C5O[C@H](CO)[C@@H](O)[C@H]5O)c4n3)c2)cc1 (stereo partly specified)
Prompt: Pick one, A or B : lowest reported Selectivity. Please identify the chosen entry by its label.
Response: B
(B: 14, A: 600)

* * *

Target or system Adenosine receptor A2a (Homo sapiens, UniProt P29274): recorded Ki listed per item.
Experimental readout: Ki (µM)

Examples from the recorded data:
> print(dat)
                                   molecule  data.value
1  CNc1nc(-n2cc(C(=O)NCc3ccc(Cl)cc3)cn2)nc2c1ncn2C1O[C@H](CO)[C@@H](O)[C@H]1O (stereo partly drawn)           4
2  OC[C@H]1OC(n2cnc3c(NCc4cccc(I)c4)nc(-n4cc(-c5nccc6ccccc56)cn4)nc32)[C@H](O)[C@@H]1O (stereo partly drawn)       0.052
3  COc1ccc(-c2cnn(-c3nc(NCc4cccc(I)c4)c4ncn(C5O[C@H](CO)[C@@H](O)[C@H]5O)c4n3)c2)cc1 (stereo partly drawn)           4
4  CNc1nc(-n2cc(-c3nc4ccccc4o3)cn2)nc2c1ncn2C1O[C@H](CO)[C@@H](O)[C@H]1O (stereo partly drawn)         2.5
5  CNc1nc(-n2cc(-c3cccnc3)cn2)nc2c1ncn2C1O[C@H](CO)[C@@H](O)[C@H]1O (stereo partly drawn)         4.1

[I] CCCNc1nc(-n2cc(-c3ccc(OC)cc3)cn2)nc2c1ncn2C1O[C@H](CO)[C@@H](O)[C@H]1O (stereo partly drawn)
[II] CCNc1nc(-n2cc(-c3ccccn3)cn2)nc2c1ncn2[C@@H]1O[C@H](CO)[C@@H](O)[C@H]1O
Prompt: Pick one, I or II : lowest reported Ki. Please identify the chosen entry by its label.
Response: II

* * *

Listing: Selectivity of selected compounds
# Target entity: Adenosine receptors; A1 & A3 (Homo sapiens) (UniProt P30542+P0DMS8)
# Test protocol: Ratio of binding to adenosine A1 and adenosine A3 receptor
# Type: protein assay

> print(dat)
                                   compound  data.value
1  CNc1nc(-n2cc(-c3ccc(OC)cc3)cn2)nc2c1ncn2[C@@H]1O[C@H](CO)[C@@H](O)[C@H]1O       > 200
2  CCCNC(=O)c1cnn(-c2nc(NC)c3ncn(C4O[C@H](CO)[C@@H](O)[C@H]4O)c3n2)c1 (stereo partly drawn)       > 200

# ---- query compound ----
Prompt: Data request, read-out Selectivity, for "CNC(=O)c1cnn(-c2nc(NC)c3ncn([C@@H]4O[C@H](CO)[C@@H](O)[C@H]4O)c3n2)c1"
Response: > 80
